# assay target: chimeric BTLA of humanised-BTLA mice (human extracellular region, murine transmembrane and signaling … (human; mouse, UniProt Q7TSA3 184-306, limits assumed)
# Sequence (Q7TSA3 other isoform, or with tags, fused parts or gaps mutant limits assumed): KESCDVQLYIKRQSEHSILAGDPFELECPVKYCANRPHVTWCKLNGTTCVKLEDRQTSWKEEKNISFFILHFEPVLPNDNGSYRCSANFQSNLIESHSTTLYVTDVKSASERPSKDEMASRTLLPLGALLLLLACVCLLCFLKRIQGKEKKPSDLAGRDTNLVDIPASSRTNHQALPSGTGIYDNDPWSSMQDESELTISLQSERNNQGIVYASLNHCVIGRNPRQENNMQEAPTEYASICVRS
# experiment summary: cell-based or functional assay
observable: AntiCD3/CD28 (CD4 T cell proliferation) repeat 1, % inhibition (%)
Hi! Could you send only the number? It should be in %, unit omitted.

26B1 (antibody, IgG1, V domains shown) VH: EVQLQQSGPVLVKPGASVKMSCKASGYTFTDYYLNWVKQSHGKSLEWIGLIDPYNGGSSCNQKFKGKATLTVDKSSSTAYMDLNSLTSEDSAVYYCARGNAMDYWGQGTSVTVSS VL: DIVMTQSHKFMSTSVGDRVSITCKASQDVSTAVAWYQEKPGQSPKLLIYWASTRHTGVPDRFTGSGSGTDYILNISSVQAEDLALYYCQQHYIIPYMFGGGTKLEIK    11
3A9 (antibody, IgG1, V domains shown) VH: QVQLKQSGAELVRPGASVKLSCKASGYTFTDYYINWVKQRPGQGLEWIARIYPGSGNTYYNEKFKGKATLTAEKSSSTAYMQLSSLTSEDSAVYFCARGYGNSDYWGQGTTLTVSS VL: DILLTQSPAILSVSPGERVSFSCRASQSIGTRIHWYQQRTNGSPRLLIKYASESISGIPSRFSGSGSGTDFTLSINSVESEDIADYYCQQSNSWPYTFGGGTKLEIK    9
15C6 (antibody, IgG1, V domains shown) VH: QVQLQQSGPELVKPGASVKISCKASGYAFSSSWMNWVKQRPGKGLEWIGRIYPGDGDTNYNGKFKGKATLTADKSSSTAYMQLSSLTSEDSAVYFCARRGYGYLAYWGQGTLVTVSA VL: DIVMTQSHKFMSTSVGDRVSITCKASQDVSTAVAWYQQKPGQSPKLLIYSASYRYTGVPDRFTGSGSGTDFTFTISSVQAEDLAVYYCQQHYSTPYTFGGGTKLEIK    2
4B1 (antibody, IgG1, V domains shown) VH: QVQLQQSGAELARPGASVRLSCKASGYTFTSYGLIWLKQRTGQGLEWIGEIYPRSGSTYYNEWFKGKATLTADKSSNTAFMELRSLTSEDSAVYFCARRRGTGDGFDYWGQGTILTVSS VL: DIQMTQTTSSLSASLGDRVTISCSASQGISNYLNWYQQKPDGTVKLLIYYTSSLHSGVPSRFSGSGSGTDYSLTISNLEPEDIATYYCQQYIELPFTFGSGTKLEIK    14
2.8.6 (antibody, IgG1, V domains shown) VH: QVQLKESGPGLVAPSQSLSITCTVSGFSLTTYGVHWVRQSPGKGLEWLGVMWPGGRTSYNPAPMSRLSISKDNSKSQVFLKMNSLQTDDTAMYYCVRGDYEYDYYAMDYWGQGTSVTVSS VL: QIVLSQSPAILSASPGEKVTMTCRASSSVSYMHWYQQKPGSSPKPWIYATSNLASGVPARFSGSGSGTSYSLTISRMEAEDAATYYCHQWSSNPYTFGGGTKLEIK    23

Please turn your attention to the following entry.
Using the record for 8B4 (antibody, IgG1, V domains shown) VH: QVQLQQSGAELARPGASVKLPCKASGYTFTSYGISWVKQRTGQGLEWIGEIYPRSGTTYYNEKFKGKATLTADKSSSTAYMELRSLTSEDSAVYFCARRISSGSGVDYWGQGTTLTVSS VL: DIQMTQTTSSLSASLGDRVTISCSASQGISNYLNWYQQKPDGTVKLLIYYTSSLHSGVPSRFSGSGSGTDYSLTISNLEPEDIATYYCQQYSELPWTFGGGTKLEIK , report its AntiCD3/CD28 (CD4 T cell proliferation) repeat 1, % inhibition.
20
